Tested on: buspirone 6′-hydroxylation (formation of 6′-OH buspirone)
Test: in vitro
Conditions: rat, rat liver microsomes
PARAMETER: Km at 40 min
Phrase the answer as number then unit, nothing more needed.

Prompt: Consider the molecule O=C1CC2(CCCC2)CC(=O)N1CCCCN1CCN(c2ncccn2)CC1 [buspirone] and give its measured Km at 40 min.
Completion: 23 µM
